Where do these numbers come from? They come from patent US20190127480A1.

Reported koff values are given for each entry in this list.
target: T1, Soluble heterodimeric CD3 protein (hCD3-epsilon/hCD3-delta) with either a human Fc tag (hFcΔAdp/hFc) or a … (human, UniProt P07766 23-126; P04234 22-105); experiment: SPR Biacore 25C antigen-capture
T1 construct: also called hCD3ε/δ; not shown: Fc tag: human (hFcΔAdp/hFc)
T1 sequence (P07766 23-126 limits assumed, stated change not applied, chain 1 of 2): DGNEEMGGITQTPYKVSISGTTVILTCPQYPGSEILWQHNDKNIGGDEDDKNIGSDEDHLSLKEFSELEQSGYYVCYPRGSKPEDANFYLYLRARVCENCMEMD
T1 sequence (P04234 22-105 limits assumed, stated change not applied, chain 2 of 2): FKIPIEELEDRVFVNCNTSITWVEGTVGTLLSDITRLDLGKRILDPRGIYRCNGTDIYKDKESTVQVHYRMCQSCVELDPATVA

{"columns": ["Binder", "Units label", "koff"],
 "data": [
  ["H1H5793B (antibody, human IgG1, V domains shown, H1H: human IgG1 Fc; divalent) VH: QVQLVQSGTEVKKPGASMKVSCKASGYTFTGYYIHWVRQAPGQGLEWMGWINPNSDVTKYAQKFQGRVTLTRDTSISAAYIDLSRLRSDDTAIYYCARMGDGAVFDYWGQGTLVTVSS VL: DIQLTQSPSSLSASVGDRVTITCRASQRISSYLNWYQQKPGKAPKVLISVASSLQSGVPSRFSGSGFGTDFTLTISSLQPEDSASYYCQQSYNTPLTFGGGTKLEIKR", "s⁻¹", 0.000159],
  ["H1H5757B (antibody, human IgG1, V domains shown, H1H: human IgG1 Fc; divalent) VH: EVQLVESGGGVVQPGRSLRLSCAASGFTFSSYGMHWVRQAPGKGLEWVTVILHDGSNRYSADSVKGRFTISRDNSKNTLYLQMNILRVEDTAVYYCTKGAMVRGVPYNHYYGMDVWGQGTTVTVSS VL: DIQMTQSPSSLSASVGDRVTITCRASQGIRNDLGWYQQKPGKAPKRLIYAASILQSGVPSRFSGSGSGTEFTLTISSLQPEDFATYYCLQHNSYPYTFGQGTKLEIKR", "s⁻¹", 0.000295],
  ["H2M2706N (antibody, mouse IgG2, V domains shown, H2M: mouse IgG2 Fc, human variable regions; divalent) VH: QVQLVESGGGVVQPGRSLRLSCAASGFTFRSYAMHWVRQAPGKGLEWVAMVYYDGNNQYYADSVRGRFTISRDNSKNTLYLQMNSLRADDTAVYFCARGPGYNWLDPWGQGTLVTVSS VL: EIVMTQSPATLSVSPGERATLSCRASQSVSRNLAWYQQKPGQAPRLLIYGASTRATGIPARFSGSGSGTDFTLTISSLQSEDFAVYYCQQYNNWPLTFGGGTKVVIK", "s⁻¹", 0.000306],
  ["H1H5764P (antibody, human IgG1, V domains shown, H1H: human IgG1 Fc; divalent) VH: QVQLVESGGGVVQPGRSLRLSCAASGFTFRSFGMHWVRQAPGKGLEWVAVISYDGNYKYYADSVKGRFTISRDNSKNTLYLQMNSLRAEDTAVHYCAKGAMVRGVPYNFYYGMDVWGQGTTVTVSS VL: DIQMTQSPSSLSASVGDRVTITCRASQVIRNDLGWYQQKPGKAPKRLIYAASSLQSGIPSRFSGSGSGTEFTLTISSLQPEDFATYYCLQHNSYPYTFGQGTKLEIK", "s⁻¹", 0.00736],
  ["H1M2712N (antibody, mouse IgG1, V domains shown, H1M: mouse IgG1 Fc; divalent) VH: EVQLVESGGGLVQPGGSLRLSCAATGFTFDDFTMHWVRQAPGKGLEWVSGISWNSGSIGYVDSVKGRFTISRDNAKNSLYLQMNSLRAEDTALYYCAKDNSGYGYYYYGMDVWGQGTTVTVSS VL: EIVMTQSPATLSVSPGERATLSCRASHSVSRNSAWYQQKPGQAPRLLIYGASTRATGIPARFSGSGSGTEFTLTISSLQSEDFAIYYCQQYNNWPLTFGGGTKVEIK", "s⁻¹", "1.37e-05"]
]}
